molecular target: GST tagged IRAK4 (Homo sapiens (Human), UniProt Q9NWZ3)
Sequence (Q9NWZ3 whole entry): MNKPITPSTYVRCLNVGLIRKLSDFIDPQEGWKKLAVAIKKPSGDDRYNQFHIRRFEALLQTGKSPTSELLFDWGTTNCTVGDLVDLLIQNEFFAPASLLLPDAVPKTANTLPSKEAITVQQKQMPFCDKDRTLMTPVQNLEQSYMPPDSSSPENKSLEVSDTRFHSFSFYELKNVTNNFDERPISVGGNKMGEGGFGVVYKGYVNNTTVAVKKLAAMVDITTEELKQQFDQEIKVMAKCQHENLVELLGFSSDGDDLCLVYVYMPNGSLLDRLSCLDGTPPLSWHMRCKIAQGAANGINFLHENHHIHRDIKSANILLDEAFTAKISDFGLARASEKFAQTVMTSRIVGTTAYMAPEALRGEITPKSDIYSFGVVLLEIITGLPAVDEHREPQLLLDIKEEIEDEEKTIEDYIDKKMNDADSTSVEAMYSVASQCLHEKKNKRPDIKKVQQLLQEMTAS
Structures can show the parent of a compound that is named as a salt.
Measure name: IC50 (nM)

INSERT INTO assay_data (molecule, quantitative_result) VALUES
  ('N[C@H]1CCCC[C@H]1Nc1ncc2ccc(C(=O)Nc3cnn(CCO)c3)n2n1 [Example 167, trifluoroacetate]', 178),
  ('N#Cc1ccccc1NC(=O)c1ccc2cnc(N[C@@H]3CCCCNC3)nn12 (single isomer, unassigned) [Example 73, trifluoroacetate]', 27),
  ('N#Cc1cscc1NC(=O)c1ccc2cnc(N3CC4CCC3CN4)nn12 (centres unmarked) [Example 36, trifluoroacetate]', 426);

[1] Cn1cc(NC(=O)c2ccc3cnc(N4C[C@H](N)C[C@@H](F)C4)nn23)c(C(F)F)n1 [Example 156, trifluoroacetate]
[2] N#Cc1ccccc1NC(=O)c1ccc2cnc(N3C[C@@H]4CC[C@H]3CN4)nn12 (single isomer, unassigned) [Example 74, trifluoroacetate]
[3] N[C@H]1CCCC[C@H]1Nc1ncc2ccc(C(=O)Nc3ccccc3C(F)(F)F)n2n1 [Example 27, trifluoroacetate]
[4] N[C@H]1CCCC[C@H]1Nc1ncc2ccc(C(=O)Nc3cscc3Cl)n2n1 [Example 109, trifluoroacetate]
# sort list by recorded IC50, greatest to least Could you list the labels in the order requested? 2, 3, 4, 1
(2: 850 nM, 3: 392 nM, 4: 2 nM, 1: 0.5 nM)

[a] O=C(Nc1ccsc1Cl)c1ccc2cnc(N3C[C@@H]4CC[C@H]3CN4)nn12 (single isomer, unassigned) [Example 53, trifluoroacetate]
[b] N#Cc1ccccc1NC(=O)c1ccc2cnc(N3C[C@H]4CC[C@@H]3CN4)nn12 (single isomer, unassigned) [Example 75, trifluoroacetate]
Which value of IC50 is greater, the one for a or the one for b ? // caller expects the label of the chosen entry b
(b: 4000 nM, a: 1640 nM)

[I] Cn1cc(NC(=O)c2ccc3cnc(N4CCCNCC4)nn23)c(C(F)(F)F)n1 [Example 6, trifluoroacetate]
[II] N#Cc1ccccc1NC(=O)c1ccc2cnc(N[C@@H]3CCCC(F)(F)[C@@H]3N)nn12 [Example 136, trifluoroacetate]
When the recorded IC50 values are compared, which is smaller: that of I or that of II ? // caller expects the label of the chosen entry I
(I: 94 nM, II: 860 nM)

###

# IC50 per entry for UniProt Q9NWZ3
Where a name gives a salt, the structure may show the parent alone.
Measure name: IC50 (µM)

Use the examples below as a reference point.
INSERT INTO assay_data (compound, quantitative_result) VALUES
  ('O=C(Nc1cscc1C(F)F)c1ccc2cnc(N3C[C@@H]4CC[C@H]3CN4)nn12 (single isomer, unassigned) [Example 80, trifluoroacetate]', 0.172),
  ('N#Cc1cscc1NC(=O)c1ccc2cnc(N[C@@H]3CCCNC3)nn12 [Example 145, trifluoroacetate]', 0.003),
  ('Cn1cc(NC(=O)c2ccc3cnc(N[C@@H]4CCCNC4)nn23)c(C#N)n1 [Example 124, trifluoroacetate]', 0.0008),
  ('N#Cc1sccc1NC(=O)c1ccc2cnc(N3CCC[C@H](N)C3)nn12 [Example 152, trifluoroacetate]', 0.007),
  ('O=C(Nc1ccccc1Br)c1ccc2cnc(N3C[C@@H]4CC[C@H]3CN4)nn12 (single isomer, unassigned) [Example 84, trifluoroacetate]', 7.81);

[I] Cn1cc(NC(=O)c2ccc3cnc(N4C[C@H]5CN[C@H](C5)C4)nn23)c(C(F)(F)F)n1 (single isomer, unassigned)
[II] Cn1cc(NC(=O)c2ccc3cnc(N[C@@H]4CCCCNC4)nn23)c(C(F)F)n1 (single isomer, unassigned) [Example 90, trifluoroacetate]
[III] Cn1cc(NC(=O)c2ccc3cnc(N4CCCNCC4)nn23)c(C(F)F)n1 [Example 15, trifluoroacetate]
[IV] N[C@@H]1[C@H](Nc2ncc3ccc(C(=O)Nc4ccsc4C(F)(F)F)n3n2)CCCC1(F)F [Example 95, trifluoroacetate]
[V] Cn1cc(NC(=O)c2ccc3cnc(N4C[C@H]5CC[C@@H]4CN5)nn23)c(Cl)n1 (single isomer, unassigned) [Example 45, trifluoroacetate]
# sort list by recorded IC50, greatest to least Could you list the labels in the order requested? IV, I, V, III, II

[P] Cn1cc(NC(=O)c2ccc3cnc(N[C@@H]4CCCC(F)(F)[C@@H]4N)nn23)c(Br)n1 [Example 89, trifluoroacetate]
[Q] Cn1cc(NC(=O)c2ccc3cnc(N[C@H]4CCCCNC4)nn23)c(C(F)(F)F)n1 (single isomer, unassigned) [Example 69, trifluoroacetate]
Which value of IC50 is greater, the one for P or the one for Q ? // caller expects the label of the chosen entry P
